Target Or Test System: T1, Mutant CD33-GFP M6 (F43N) on 293FT cells (UniProt P20138 18-364)
T1 construct: whole, on cells; not shown: GFP fused to CD33
T1 sequence (P20138 18-364 F43N): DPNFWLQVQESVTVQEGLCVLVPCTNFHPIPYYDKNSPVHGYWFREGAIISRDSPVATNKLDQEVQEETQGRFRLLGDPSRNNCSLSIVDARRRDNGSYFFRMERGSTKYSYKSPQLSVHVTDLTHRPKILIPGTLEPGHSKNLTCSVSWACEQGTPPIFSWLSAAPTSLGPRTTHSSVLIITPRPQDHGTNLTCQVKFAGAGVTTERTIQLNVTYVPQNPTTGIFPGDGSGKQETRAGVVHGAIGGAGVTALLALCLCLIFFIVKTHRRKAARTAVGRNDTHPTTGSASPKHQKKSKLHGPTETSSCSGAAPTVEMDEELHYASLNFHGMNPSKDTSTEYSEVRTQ
Experimental Protocol: FACS, mutant CD33-GFP on 293FT cells
# FACS binding data values compiled below
Just the number, please, no unit after it.

Worked examples follow.
sdCD33_6 (VHH, sdAb from a naive llama phage library; also called 416; sdAb416) VHH: EVQLVESGGGLVQPRGSLRLSCVVSGSMSSIYSMSWYRQPPGKQRELVAHITTTGTTNYIDSVKGRFTISIDNDINVIYLQMNTLKPEDTAVYYCNAGLKAGPGPRLDYWGLGTQVTVSS :: 97.9
sdCD33_3 (VHH) VHH: DVQLVESGGGLVQPGGSLRLSCSVSGNIDRFYAMGWYRQAPGKQRELVAQLTNNEITTYGDSVEGQFSISGDFDANTVYLQMDSLKPEDTAVYYCHAHVTTTRWSQDYYWGQGTRVTVSS :: 99
sdCD33_2 (VHH) VHH: QVQLVQPGGSLRLFCVASEEFFSIYAMGWYRQAPGKQHEMVARFTRDGKITYADSAKGRFTITRDAKNTLNLQMNGLIPEDTAVYYCNINHYWGQGTQVTVSS :: 95.3
sdCD33_10 (VHH) VHH: QVQLVETGGGLVRAGGSLRLSCAASGRTADIYNIGWFRQAPGKEREFVAAITWIGRTPYYADAVKGRFAFSTDSAKNTVSLQMDNLKPEDTGVYYCNAAHYLEGNTDYYWGQGTQVTVSS :: 97.6
sdCD33_4 (VHH) VHH: QVKLEESGGGSVQAGESLRLSCTASGITFRDYDIDWYRQAPGKEREWLATITPSGTTHYPDSVKGRATISRDSAKNTVYLQMNSLKPEDTARYECNTLAYWGSGTQVTVSS :: 98.3

Challenge: Read the entry sdCD33_8 (VHH, sdAb from a naive llama phage library; also called 424; sdAb424) VHH: QVQLVESGGGLVQAGGSLRLSCAASGGAFSTYTMGWFRQAPGKEREFVAAIAWTGTHTYYSDSVKGRFTISRDNDKNTVFLQMNSLKPEDTAVYYCAQASSRYRAVTDSLSENHWGPGTQVTVST and write its reported FACS binding data.
Response given: 98.6

Challenge: Read the entry sdCD33_9 (VHH, sdAb from a naive llama phage library; also called 426; sdAb426) VHH: QVKLEESGGGLVRAGGSLRLSCAASGGTFSTYAMAWFRQAPGKEREFVAAITWGGGSTYYEDSVKGRFTISRDNAKNTGVLQMNNLDVDDTAVYYCYAFGRSRAGDANGDYWGQGTQVTVSS and write its reported FACS binding data.
Response given: 99.2

Challenge: Read the entry sdCD33_7 (VHH, sdAb from a naive llama phage library; also called 420; sdAb420) VHH: EVQLVESGGGLVQPGGSLRLSCVASGFTFKDYGMTWVRQAPGKALEWVSDINSAGDGIYYSDSVKGRFTISRDDSKGTLYLQMNSLTPEDTAIYYCAAERQRAGDVKRSLAPITAHIWGQGTQVTVSS and write its reported FACS binding data.
Response given: 98.3
